meta.source: patent US6013673A

What follows is a collection of Ki values obtained with prostanoide receptor subtype (mouse EP3 α) (Mus musculus, UniProt P30557).
Sequence (P30557 whole entry): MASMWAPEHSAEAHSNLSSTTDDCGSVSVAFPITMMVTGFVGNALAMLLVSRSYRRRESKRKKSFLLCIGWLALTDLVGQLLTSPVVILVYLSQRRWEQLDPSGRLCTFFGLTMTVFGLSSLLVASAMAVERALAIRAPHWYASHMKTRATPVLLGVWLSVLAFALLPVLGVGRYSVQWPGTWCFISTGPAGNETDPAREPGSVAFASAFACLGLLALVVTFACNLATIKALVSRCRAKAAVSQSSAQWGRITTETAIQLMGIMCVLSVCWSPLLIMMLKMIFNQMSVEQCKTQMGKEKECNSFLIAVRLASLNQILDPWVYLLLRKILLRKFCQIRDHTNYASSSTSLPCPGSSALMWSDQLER
measurement kind: Ki (nM)

| compound | units of measure | Ki |
| --- | --- | --- |
| NC(=O)COc1cccc2c(CCC(=O)NC(c3ccccc3)c3ccccc3)cccc12 [Example 4] | nM | 23 |

A. O=C(O)COc1cccc2c(CCC(=O)NN(c3ccccc3)c3ccccc3)cccc12 [Example 2a]
B. O=C(CCc1cccc2c(OCCO)cccc12)NC(c1ccccc1)c1ccccc1 [Example 3]
C. O=C(O)COc1cccc2c(CC(=O)NC(c3ccccc3)c3ccccc3)cccc12 [Example 2d]
D. O=C(O)COc1cccc2c(CCC(=O)NC(c3ccccc3)c3ccccc3)cccc12 [Example 2]
Ask | Reorder: Ki, max to min. Reply with the item labels sorted in the order that was asked for.
Reply | A, C, B, D
